Give caspase activation (% of PBS control) for every item shown.
Target: HIF1A
Experiment: HeLa, 100 nM transfected, 24 h, mean of 3
Details: ASO
Bases are written 5' to 3'; sugars and linkages follow in the same order, as letters with counts (s phosphorothioate, o phosphodiester; PS: all linkages phosphorothioate). C may stand for cytosine or 5-methylcytosine; the collection does not tell. l = locked nucleic acid (LNA); d = 2'-deoxy (DNA)
Could you respond with only the numeric value?

Provide caspase activation (% of PBS control) value for the following sequence: TGGCAAGCATCCTGTA (sugars ldldldddddddddll, PS) 210

Provide caspase activation (% of PBS control) value for the following sequence: TGGCAAGCATCCTGTA (sugars l1 d2 l1 d9 l3, PS) 254

Provide caspase activation (% of PBS control) value for the following sequence: GTTACTGCCTTCT (sugars l3 d9 l1, PS) 138

Provide caspase activation (% of PBS control) value for the following sequence: GTTACTGCCTTCTTAC (sugars l3 d1 l1 d6 l5, PS) 474

Provide caspase activation (% of PBS control) value for the following sequence: TGGCAAGCATCCTGTA (sugars l4 d8 l2 d1 l1, PS) 425

Provide caspase activation (% of PBS control) value for the following sequence: GTTACTGCCTTCTTAC (sugars l2 d2 l1 d9 l2, PS) 138

Provide caspase activation (% of PBS control) value for the following sequence: TGGCAAGCATCCTGTA (sugars lddllddddddddldl, PS) 397

Provide caspase activation (% of PBS control) value for the following sequence: GTTACTGCCTTCTTAC (sugars l1 d1 l1 d10 l3, PS) 109

Provide caspase activation (% of PBS control) value for the following sequence: GCAAGCATCCTGT (sugars l1 d2 l1 d7 l2, PS) 151

Provide caspase activation (% of PBS control) value for the following sequence: ACTGCCTTCTTAC (sugars l2 d9 l2, PS) 167

Provide caspase activation (% of PBS control) value for the following sequence: GCAAGCATCCTGT (sugars l2 d9 l2, PS) 285

Provide caspase activation (% of PBS control) value for the following sequence: GTTACTGCCTTCTTAC (sugars l1 d2 l1 d8 l4, PS) 175

Provide caspase activation (% of PBS control) value for the following sequence: TGGCAAGCATCCTGTA (sugars l1 d11 l1 d1 l2, PS) 315

Provide caspase activation (% of PBS control) value for the following sequence: TTACTGCCTTCTT (sugars ldldddddddldl, PS) 154

Provide caspase activation (% of PBS control) value for the following sequence: TGGCAAGCATCCTGTA (sugars ldllldddddddldll, PS) 459

Provide caspase activation (% of PBS control) value for the following sequence: TTACTGCCTTCTT (sugars l1 d2 l1 d7 l2, PS) 126

Provide caspase activation (% of PBS control) value for the following sequence: TACTGCCTTCTTA (sugars l4 d8 l1, PS) 435

Provide caspase activation (% of PBS control) value for the following sequence: TACTGCCTTCTTA (sugars l4 d6 l3, PS) 404

Provide caspase activation (% of PBS control) value for the following sequence: GTTACTGCCTTCTTAC (sugars llldlddddddldlll, PS) 273

Provide caspase activation (% of PBS control) value for the following sequence: GTTACTGCCTTCTTAC (sugars lddlddddddddldll, PS) 130

Provide caspase activation (% of PBS control) value for the following sequence: TACTGCCTTCTTA (sugars l3 d9 l1, PS) 286

Provide caspase activation (% of PBS control) value for the following sequence: GTTACTGCCTTCT (sugars l3 d7 l3, PS) 267

Provide caspase activation (% of PBS control) value for the following sequence: GTTACTGCCTTCTTAC (sugars l2 d9 l2 d1 l2, PS) 223
